Study system: Muscarinic acetylcholine receptor M4 (Homo sapiens)
Assay overview: human M4 muscarinic receptor antagonists, primary screen, CHO cells, Fluo-8 calcium fluorescence (AID 624125);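 note: 0% = acetylcholine EC80 with DMSO and 100% = DMSO without agonist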
Condition parameters: CHO-hM4 cells, ACh EC80, Fluo-8 calcium fluorescence; at 3 µM; active compounds read high
In all, about 360,000 compounds went through this assay and about 2,600 (0.72%) were called active. The list comes from a sample in which actives are over-represented; it also holds close analogues and randomly drawn compounds.
Readout name: inhibition (%)
Numbers only, in %.

Here's what some known entries look like.
| Molecule | Readout name | Unit abbrev | Measured value |
| --- | --- | --- | --- |
| CCc1ccccc1NC(=O)NCCN1CCCCC1 | inhibition | % | 4.05 |
| COc1cccc(OCC(=O)NNC(=O)c2cnccn2)c1 | inhibition | % | 12.6 |
| C=CC1=C(C(=O)O)N2C(=O)[C@@H](NC(=O)/C(=N\OCC(=O)O)c3csc(N)n3)[C@H]2SC1 | inhibition | % | -25.2 |
| CCN1CCN(CC(=O)c2cc(OC)c(OC)c(OC)c2)CC1 | inhibition | % | 3.39 |
| C=CC1=C(C(=O)O)N2C(=O)[C@@H](NC(=O)/C(=N/OCC(=O)O)c3csc(N)n3)[C@H]2SC1 | inhibition | % | -12.2 |
| Cc1cccc2c1N(CCOc1ccccc1)C(=O)C2=O | inhibition | % | -0.73 |

Batch lookup, inhibition per entry.
1. O=C1C(=O)N(CCCO)C(c2ccccc2)/C1=C(\O)c1ccc(Br)cc1 (centres undefined)
2. COc1cccc(/C=N/Nc2cc(C)nc(-c3ccccc3O)n2)c1O
3. CN(C(=O)CN1C(=O)/C(=C/c2ccc(Cl)cc2)SC1=S)C1CCS(=O)(=O)C1 (centres undefined)
4. Cc1nc(N)c(Br)c(C)c1Br

Response:
1. 3.51
2. 28.3
3. -3.95
4. -2.18

Could I get inhibition for every one of these entries?
1. CCN(CC)c1ccc(/C=N/NC(=O)c2cnccn2)c(O)c1
2. CC(C)(C)NC(=O)/C(=C/c1cccnc1)NC(=O)c1ccco1
3. CCCCOc1ccc(C(C)(O)CCN2CCOCC2)cc1 (centres undefined)
4. CCOc1ccc(S(=O)(=O)N(CC(=O)NCC(F)(F)F)Cc2ccco2)cc1
5. CCCCCC(O)(CCN1CCCCC1)c1ccccc1 (centres undefined)
6. CCC(=O)OCc1c(C(F)(F)F)nn(C)c1Oc1cccc(C(F)(F)F)c1
7. O=C(c1ccccc1)C(O)(CN1CCCCC1)c1ccccc1 (centres undefined)
8. COc1cccc(C(=O)NNS(=O)(=O)c2ccc(F)cc2)c1

Response:
[33.1, -1.31, 3.58, -2.55, 98.9, 9.7, 5.71, 9.85]

Entry source: PubChem BioAssay AID624125
